System: DMS-273
experimental-details: NCI tumour cell line growth inhibition, 48 h
Active and inactive are the calls of the source. Rule as the data show it: active = GI50 up to about 1.1 µM and inactive = higher.
reported-property: GI50

[[record]]
molecule = "COc1ccccc1C(O)(c1ccccc1)C(O)(c1ccccc1)c1ccccc1OC (stereo unspecified)"
reported_property = "GI50"
result = "> 100 µM (inactive)"

[[record]]
molecule = "OCC12C=CC(C1)c1ccccc12 (stereo unspecified)"
reported_property = "GI50"
result = "> 100 µM (inactive)"

[[record]]
molecule = "N#CC(Nc1cccc(C(F)(F)F)c1)c1ccccc1C(F)(F)F (stereo unspecified)"
reported_property = "GI50"
result = "8.04 µM (inactive)"

[[record]]
molecule = "CC1CN1c1c(C(=O)/C=C/c2ccc(Cl)cc2)c(-c2ccccc2)nn(C)c1=O (stereo unspecified)"
reported_property = "GI50"
result = "2.62 µM (inactive)"

[[record]]
molecule = "CCCCCCCC(=O)OC[C@@H](C[As](=O)(O)O)OC(=O)CCCCCCC"
reported_property = "GI50"
result = "12.1 µM (inactive)"

[[record]]
molecule = "CCC1=C(C(C)=O)[C@@H]2CCCCC[C@@H](C(=O)OC)C2C1=O (stereo partly specified)"
reported_property = "GI50"
result = "> 100 µM (inactive)"

[[record]]
molecule = "NCCSc1nc(N)c2ncn(C3OC(CO)C(O)C3O)c2n1 (stereo unspecified)"
reported_property = "GI50"
result = "> 100 µM (inactive)"

[[record]]
molecule = "CCOC(=O)C(=O)Nc1cc(Cl)ccc1Cl"
reported_property = "GI50"
result = "> 100 µM (inactive)"

[[record]]
molecule = "CCCCC#CS(=O)(=O)C(F)(F)F"
reported_property = "GI50"
result = "48 µM (inactive)"

[[record]]
molecule = "CC(C)(CCl)NC(=O)c1cccc(C(=O)NC(C)(C)CCl)n1"
reported_property = "GI50"
result = "> 100 µM (inactive)"

[[record]]
molecule = "CN(c1ccccc1)c1c(Cl)c(=O)oc2c1ccc1occc12"
reported_property = "GI50"
result = "> 100 µM (inactive)"


====

System: RPMI-8226
experimental-details: NCI tumour cell line growth inhibition, 48 h
Activity calls are given as the source filed them. No stated cut-off is given here; in the data, active = GI50 up to about 1.1 µM and inactive = higher.
reported-property: GI50

[[record]]
compound = "CC(C)C1=CC23CCC4C(C)(C(=O)O)CCCC4(C)C2CC1C1C(=O)N(CCCCCCN2C(=O)C4C5CC6C7(C)CCCC(C)(C(=O)O)C7CCC6(C=C5C(C)C)C4C2=O)C(=O)C13 (stereo not given)"
result = "13.7 µM (inactive)"

[[record]]
compound = "CN(Cc1cnc2nc(N)nc(N)c2n1)c1ccc(C(=O)NC(CCC(=O)O)C(=O)O)cc1 (stereo not given)"
result = "< 0.0284 µM (active)"

[[record]]
compound = "COC(=O)c1c(O)ccc2c1c1c(n2Cc2ccccc2Cl)C(=O)c2ccccc2C1=O"
result = "5.98 µM (inactive)"

[[record]]
compound = "Cc1ccc(C(=O)N(C(C)C)C(C)C)cc1/N=N/N(C)C"
result = "33 µM (inactive)"

[[record]]
compound = "C[C@]12CC(c3ccccc3O1)C(C(N)=O)C(=O)N2 (stereo not given in full)"
result = "> 100 µM (inactive)"

[[record]]
compound = "NNC(=O)/C(NC(=O)c1ccccc1)=C(\\N)c1cccc([N+](=O)[O-])c1"
result = "> 100 µM (inactive)"

[[record]]
compound = "COc1ccc(-n2c(=O)n(C)c(=O)n2-c2c(C)c(C)c(C)c(C)c2C)cc1"
result = "> 100 µM (inactive)"

[[record]]
compound = "O=C1Nc2ccccc2/C1=N/Nc1ccc([N+](=O)[O-])cc1"
result = "24.8 µM (inactive)"

[[record]]
compound = "CCOC(=O)N1Cc2ccoc2C1"
result = "> 100 µM (inactive)"

[[record]]
compound = "CCCCCCCCCCCCCCCCc1c(O)nc(NC#N)nc1C(=O)OC"
result = "> 25 µM (inactive)"

